Tested on: MDA-MB-468 breast
Test: NCI-60 one-dose screen, 48 h (100 = growth as untreated, 0 = no growth, -100 = all killed)
Details: 10 µM unless noted
This is part of a sample that, as a whole, favours compounds with a hit. Of some 83,000 tested, about 20% had one in any assay.
Quantity: growth (%)
Answers are plain numbers, in %.

Some solved cases for reference:
Cc1nc(-c2cc3ccccc3c(N3CCN(C)CC3)n2)cs1 : 87
CC(=O)Nc1ccc2c(c1)Cc1cc(F)ccc1-2 : 101
O=C(NCCNc1nccc(-c2c(-c3cccc(O)c3)nc3sccn23)n1)c1ccc(N2CCOCC2)c(C(F)(F)F)c1 : 50.2

Give one value of growth per listed molecule.
1. O=C1/C=C/[C@@H](O)[C@@H]2C[C@@H](O)C[C@H]2/C=C/CCC[C@H](CCOCc2ccccc2)O1
2. CC(=O)NCC(=O)c1ccc([N+](=O)[O-])cc1
3. NC(=S)NN=C1CCCC1

Result:
1. -41.9
2. 117
3. 14.1
